Numbers sourced from patent US20160108110A1.

Kd values for the binders below.
Biological target: T1, Human ANGPTL4(26-406)-FLAG-His6-Avi (human, UniProt Q9BY76 24-406, biotin on the C-terminal Avi tag in the biotinylated preparations (immobilised form in SET, ELISA and Octet))
T1 construct: also called full-length human ANGPTL4; hANGPTL4
T1 sequence: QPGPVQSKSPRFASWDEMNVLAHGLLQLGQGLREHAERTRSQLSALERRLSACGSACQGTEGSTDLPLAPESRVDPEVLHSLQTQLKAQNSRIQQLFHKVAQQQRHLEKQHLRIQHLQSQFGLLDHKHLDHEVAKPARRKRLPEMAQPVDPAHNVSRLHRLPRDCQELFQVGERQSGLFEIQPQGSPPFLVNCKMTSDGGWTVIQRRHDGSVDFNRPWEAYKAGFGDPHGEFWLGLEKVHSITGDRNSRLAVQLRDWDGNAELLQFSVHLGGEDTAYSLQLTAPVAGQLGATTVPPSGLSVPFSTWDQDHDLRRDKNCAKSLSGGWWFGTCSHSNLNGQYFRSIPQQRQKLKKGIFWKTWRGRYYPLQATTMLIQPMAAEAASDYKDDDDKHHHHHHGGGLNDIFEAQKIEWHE
Assay: SET assay (solution equilibrium titration, MSD), IgG
Expressed in nM, but write only the number.

>  <binder>
MOR021792 (antibody, human IgG1, lambda, V domains shown) VH: QVQLLESGGGLVQPGGSLRLSCAASGFTFSDYAMDWVRQAPGKGLEWVSKISYDGSYTYYADSVKGRFTISRDNSKNTLYLQMNSLRAEDTAVYYCARPSMSYYIIPAGFDVWGQGTLVTVSS VL: DIELTQPPSVSVSPGQTASITCSGDALGVKRASWYQQKPGQAPVLVIYKDNNRPSGIPERFSGSNSGNTATLTISGTQAEDEADYYCSVRTWSMNLYVFGGGTKLTVLG

>  <experimentalValue>
0.01

$$$$
>  <binder>
MOR022768 (antibody, human IgG1, kappa, V domains shown, human IgG1) VH: EVQLLESGGGLVQPGGSLRLSCAASGFTFSSYYLHWVRQAPGKGLEWVSYISGSGSSTYYADSVKGRFTISRDNSKNTLYLQMNSLRAEDTAVYYCARERSYAHDHWGQGTLVTVSS VL: DIQMTQSPSSLSASVGDRVTITCRASQDIYIDLNWYQQKPGKAPKLLIYAASKLQSGVPSRFSGSGSGTDFTLTISSLQPEDFATYYCQQGYFLPQTFGQGTKVEIKR

>  <experimentalValue>
0.004

$$$$

Let's switch to this binder now.
Request: Give the measured Kd of MOR022767 (antibody, human IgG1, kappa, V domains shown, human IgG1) VH: EVQLLESGGGLVQPGGSLRLSCAASGFTFSSYYLHWVRQAPGKGLEWVSYISGEGSSTYYADSVKGRFTISRDNSKNTLYLQMNSLRAEDTAVYYCARERSYAHDHWGQGTLVTVSS VL: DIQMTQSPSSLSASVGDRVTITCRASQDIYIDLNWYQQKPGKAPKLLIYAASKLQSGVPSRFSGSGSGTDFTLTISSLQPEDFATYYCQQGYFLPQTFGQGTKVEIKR .
Response: 0.019
